B1: CLPTM1 (parent)
chain: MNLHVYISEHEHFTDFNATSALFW

variants of: B1; assay: protein stability index of a GFP-peptide fusion (GPS, HEK-293T) (PSI 1-6); higher = more stable; settings: c terminus: a fixed tail appended;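 note: lentivirally expressed fusions sorted by FACS into six bins by GFP to DsRed ratio, PSI derived from sequencing read proportions per bin multiplied by bin number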
Documented protein stability index across a set of variants

| changes | protein stability index |
| --- | --- |
| E9Y | 2.5 |
| H4K | 1.99 |
| F13S | 2.4 |
| I7M | 3.09 |
| V5E | 1.34 |
| A18V | 2.92 |
| E11I | 2.42 |
| D15S | 4.3 |
| S20C | 2.75 |
| L3M | 2.18 |
| Y6K | 3.26 |
| E9F | 2.28 |
| V5H | 2.42 |
| A18K | 4.8 |
| T19E | 2.59 |
| F23V | 2.13 |
| W24T | 3.19 |
| I7S | 2.45 |
| E9M | 3.76 |
| Y6S | 3.07 |
| T14E | 3.86 |
| Y6H | 2.59 |

meta.source: the supplement of paper PMC10567573
